- System: MDA-MB-468
- RUN DESCRIPTION: Cytotoxicity against human MDA-MB-468 cells assessed as cell growth at 10 uM after 48 hrs by SRB assay relative to control
- Assay type: functional
- CONDITION SUMMARY: MDA-MB-468, 48 h, read-out: Activity
Everything with growth at 10 µM lower than 80% is rule not met; everything else, including exactly 80%, is rule met.

Reference set (9 entries):
1) CC(C)=CCC[C@H](C)c1ccc(C)c(CNCCCCC(=O)O)c1O :: rule met
2) CC(C)=CCC[C@H](C)c1ccc(C)c2c1OCN(CCO)C2 :: rule met
3) CC(C)=CCC[C@H](C)c1ccc(C)c(CNCC2CCNCC2)c1O :: rule not met
4) CC(C)=CCC[C@H](C)c1ccc(C)c2c1OCN(CCCCC(=O)O)C2 :: rule met
5) COc1ccc(CCNCc2c(C)ccc([C@@H](C)CCC=C(C)C)c2O)cc1OC :: rule not met
6) COc1ccc(CCN2COc3c([C@@H](C)CCC=C(C)C)ccc(C)c3C2)cc1OC :: rule not met
7) CC(C)=CCC[C@H](C)c1ccc(C)c2c1OCN(CCCCCO)C2 :: rule met
8) CC(C)=CCC[C@H](C)c1ccc(C)c(CO)c1O :: rule met
9) CC(C)=CCC[C@H](C)c1ccc(C)cc1O :: rule met

Now turn to the next compound.
Evaluate CC(C)=CCC[C@H](C)c1ccc(C)c2c1OCN(CC1CCNCC1)C2 : growth at 10 µM at minimum 80%? rule not met
